Sourced from the kinase profiling compilation of Christmann-Franck et al. (2016)

target: CDK6 CCND1 (human) (UniProt Q00534+P24385); experiment: radiometric filter-binding kinase assay, Kinase HotSpot; conditions: compound 0.5 µM; ATP 10 µM
Sequence (P24385 whole entry, looked up): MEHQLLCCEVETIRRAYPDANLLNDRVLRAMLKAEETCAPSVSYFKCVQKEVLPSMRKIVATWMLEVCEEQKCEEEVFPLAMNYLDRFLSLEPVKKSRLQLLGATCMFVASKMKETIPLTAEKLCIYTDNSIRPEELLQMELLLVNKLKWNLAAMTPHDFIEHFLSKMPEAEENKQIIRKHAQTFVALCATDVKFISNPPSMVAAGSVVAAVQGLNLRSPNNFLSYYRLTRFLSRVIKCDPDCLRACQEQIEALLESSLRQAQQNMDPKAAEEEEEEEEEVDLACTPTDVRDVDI
Sequence (Q00534 whole entry, looked up): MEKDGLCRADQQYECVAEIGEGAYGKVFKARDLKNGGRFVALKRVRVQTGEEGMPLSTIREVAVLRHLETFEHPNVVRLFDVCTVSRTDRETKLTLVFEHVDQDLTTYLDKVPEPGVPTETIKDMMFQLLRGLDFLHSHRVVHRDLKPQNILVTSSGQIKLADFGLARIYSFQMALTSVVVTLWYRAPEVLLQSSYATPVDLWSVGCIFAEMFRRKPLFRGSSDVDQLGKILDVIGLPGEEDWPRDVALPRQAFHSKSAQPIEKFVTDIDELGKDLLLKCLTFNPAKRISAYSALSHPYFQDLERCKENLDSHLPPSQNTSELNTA
Test readout: residual activity (%)
Provide the reading as a plain figure in %.

Cc1cc2ncc(-c3ccccc3)nc2cc1C = 87.1
CCN1/C(=C/C(C)=O)Sc2ccc(OC)cc21 = 108
COc1ccc(-c2cnc3c(-c4ccsc4)cnn3c2)cc1 = 53.4

Lab book: residual activity of "CCCNC(=O)Nc1ccc(Oc2ncnc3cc(OC)c(OC)cc23)cc1Cl" noted as 92.9

====

target: CDK4 CCND3 (human) (UniProt P30281+P11802); experiment: radiometric filter-binding kinase assay, Kinase HotSpot; settings: compound 0.5 µM; ATP 10 µM
Sequence (P11802 whole entry, looked up): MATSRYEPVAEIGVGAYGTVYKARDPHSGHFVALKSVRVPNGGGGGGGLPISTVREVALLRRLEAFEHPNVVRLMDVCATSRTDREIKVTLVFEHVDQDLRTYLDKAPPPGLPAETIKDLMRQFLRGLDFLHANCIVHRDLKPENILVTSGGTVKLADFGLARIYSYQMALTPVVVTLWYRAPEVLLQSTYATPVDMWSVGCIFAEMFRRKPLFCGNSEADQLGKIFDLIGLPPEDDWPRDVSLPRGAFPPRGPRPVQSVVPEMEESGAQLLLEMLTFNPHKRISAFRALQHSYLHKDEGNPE
Sequence (P30281 whole entry, looked up): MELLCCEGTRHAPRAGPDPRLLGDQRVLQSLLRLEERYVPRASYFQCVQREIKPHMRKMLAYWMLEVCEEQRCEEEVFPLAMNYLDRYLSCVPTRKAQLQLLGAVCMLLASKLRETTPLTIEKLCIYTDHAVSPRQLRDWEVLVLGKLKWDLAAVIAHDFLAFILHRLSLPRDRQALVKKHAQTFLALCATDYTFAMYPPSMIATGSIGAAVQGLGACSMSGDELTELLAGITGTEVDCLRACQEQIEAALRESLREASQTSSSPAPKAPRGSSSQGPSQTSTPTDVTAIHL
Test readout: residual activity (%)
Expressed in %, but write only the number.

Nc1nc(Nc2ccc(S(N)(=O)=O)cc2)nn1C(=S)Nc1c(F)cccc1F = 3.67
Cc1cc2ncc(-c3ccccc3)nc2cc1C = 94.6

Per the records, this molecule ( "CCOc1nc(NC(=O)Cc2cc(OC)ccc2OC)cc(N)c1C#N" ) has residual activity equal to 95.2

Notebook: O=C(NC(NC(=S)Nc1ccc(F)c([N+](=O)[O-])c1)C(Cl)(Cl)Cl)C(c1ccccc1)c1ccccc1 (stereo not given) , residual activity read as 93.7

What the record says about "Nc1n[nH]c2nnc(-c3c(-c4ccccc4)nn4ccccc34)cc12" : residual activity is 100

Quick note, residual activity for "CC(C)[C@H](CO)Nc1nc(Nc2cccc(Cl)c2)c2ncn(C(C)C)c2n1" landed at 88.3

Looking up "NC(=O)c1ccc(-c2nc(-c3ccccn3)c(-c3ccc4c(c3)OCCO4)[nH]2)cc1" , I see its residual activity listed as 94.1

Noted for "NC(=O)c1ccc(N(C(N)=O)c2c(F)cccc2F)nc1-c1ccc(F)cc1F" : its residual activity reads 98.4

Documented residual activity of "O=C1Nc2ccccc2/C1=C\c1c(Cl)[nH]c2ccccc12" : 97.4

So for CSc1nc(-c2ccc(F)cc2)c(-c2ccnc(NC(C)c3ccccc3)c2)[nH]1 (stereo not given) , the logged residual activity turned out to be 111

====

target: FLT3 (human) (UniProt P36888); assay: radiometric filter-binding kinase assay, Kinase HotSpot; settings: compound 0.5 µM; ATP 10 µM
Sequence (P36888 whole entry, looked up): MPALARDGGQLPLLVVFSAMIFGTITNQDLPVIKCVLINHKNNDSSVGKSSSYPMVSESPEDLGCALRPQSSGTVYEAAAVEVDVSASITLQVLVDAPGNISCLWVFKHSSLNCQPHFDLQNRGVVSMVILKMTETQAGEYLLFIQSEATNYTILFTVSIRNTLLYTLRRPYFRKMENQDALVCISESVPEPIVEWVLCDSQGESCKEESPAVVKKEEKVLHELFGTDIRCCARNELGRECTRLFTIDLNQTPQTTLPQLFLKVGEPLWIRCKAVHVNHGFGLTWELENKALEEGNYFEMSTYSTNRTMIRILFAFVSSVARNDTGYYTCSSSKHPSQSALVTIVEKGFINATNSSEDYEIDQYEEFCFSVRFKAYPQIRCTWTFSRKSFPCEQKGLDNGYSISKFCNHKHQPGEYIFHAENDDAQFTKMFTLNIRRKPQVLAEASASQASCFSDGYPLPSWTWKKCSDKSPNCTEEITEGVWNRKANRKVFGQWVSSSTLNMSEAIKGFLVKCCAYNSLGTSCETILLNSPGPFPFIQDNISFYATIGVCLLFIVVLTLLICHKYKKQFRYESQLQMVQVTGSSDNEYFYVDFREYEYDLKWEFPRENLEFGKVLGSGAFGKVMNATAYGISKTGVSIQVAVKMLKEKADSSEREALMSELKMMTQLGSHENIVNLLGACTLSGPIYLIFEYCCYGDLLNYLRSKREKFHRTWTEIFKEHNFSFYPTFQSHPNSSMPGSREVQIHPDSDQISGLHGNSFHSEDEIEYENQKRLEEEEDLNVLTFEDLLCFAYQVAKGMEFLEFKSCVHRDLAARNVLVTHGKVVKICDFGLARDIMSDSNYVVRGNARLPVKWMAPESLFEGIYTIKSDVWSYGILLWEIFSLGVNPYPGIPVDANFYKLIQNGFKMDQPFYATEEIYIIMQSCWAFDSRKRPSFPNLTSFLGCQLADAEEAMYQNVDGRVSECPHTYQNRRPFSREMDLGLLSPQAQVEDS
Categorized via residual activity: low: < 40%; moderate: ≥ 40% and < 80%; high: ≥ 80%

Some solved cases for reference:
CCN1/C(=C/C(C)=O)Sc2ccc(OC)cc21 = moderate
O=C1Nc2cc(Br)ccc2/C1=C1/Nc2ccccc2/C1=N\O = low
O=C(NC(NC(=S)Nc1ccc(F)c([N+](=O)[O-])c1)C(Cl)(Cl)Cl)C(c1ccccc1)c1ccccc1 (stereo not given) = high

Now consider the entry below.
(Q) Which class holds "CC(C)(C)c1nc2c3ccc(F)cc3c3c(=O)[nH]ccc3c2[nH]1" ?
(A) low

====

molecular target: TTK (human); experiment: radiometric filter-binding kinase assay, Kinase HotSpot; conditions: compound 0.5 µM; ATP 10 µM
Parameter residual activity: see the listing below.
Please reply with the bare figure in % and do not write the unit itself.

Nc1n[nH]c2nnc(-c3c(-c4ccccc4)nn4ccccc34)cc12 = 110

The reported TTK (human) residual activity of "CC(C)n1cnc2c(Nc3cccc(Cl)c3)nc(NCCO)nc21" is 82.5

Form field, residual activity with TTK (human), item "Clc1ccc(Nc2nnc(Cc3ccncc3)c3ccccc23)cc1" : 108

"COc1cc2ncnc(Nc3ccc(F)c(Cl)c3)c2cc1OCCCN1CCOCC1" tested on TTK (human) gave residual activity: 96.3
